The origin of these recorded values is paper PMC8584173.

- System: S. epidermidis 438
- EXPERIMENTAL_PROTOCOL: MIC, hospital MRSE strain
- Type: cell-based, Staphylococcus epidermidis
- STATED_CONDITIONS: hospital MRSE S. epidermidis 438
Examples of molecules with documented MIC follow.
Give the number; µg/mL is assumed, so skip it.

Some entries whose results are on file:
{"MOLECULE": "O=[N+]([O-])c1cc([N+]2=C(Nc3cccc(Br)c3)[S][Cu-2]23[S]C(Nc2cccc(Br)c2)=[N+]3c2ccc(Cl)c([N+](=O)[O-])c2)ccc1Cl [Compound 2]", "MIC (µg/mL)": 8}
{"MOLECULE": "O=[N+]([O-])c1cc(NC2=[N+](c3ccc(Cl)c([N+](=O)[O-])c3)[Cu-2]3([S]2)[S]C(Nc2ccc(Cl)c([N+](=O)[O-])c2)=[N+]3c2ccc(Cl)c([N+](=O)[O-])c2)ccc1Cl [Compound 6]", "MIC (µg/mL)": 128}

Inquiry: Provide measured MIC value, entry: O=[N+]([O-])c1cc([N+]2=C(Nc3ccc(F)c(Cl)c3)[S][Cu-2]23[S]C(Nc2ccc(F)c(Cl)c2)=[N+]3c2ccc(Cl)c([N+](=O)[O-])c2)ccc1Cl [Compound 4]
Reply text: 8

* * *

// values below are reported MIC
- Test system: E. coli ATCC 25922
- EXPERIMENTAL_PROTOCOL: MIC, twofold serial microdilution
- Type: cell-based, Escherichia coli
- STATED_CONDITIONS: E. coli ATCC 25922, 18 h, 35 °C
Use µg/mL as the unit, but write only the number.

Inquiry: Tell us which MIC value is on record for "O=[N+]([O-])c1cc([N+]2=C(Nc3ccccc3Br)[S][Cu-2]23[S]C(Nc2ccccc2Br)=[N+]3c2ccc(Cl)c([N+](=O)[O-])c2)ccc1Cl"
Reply text: 256

Inquiry: Check the records and state MIC for "O=[N+]([O-])c1cc([N+]2=C(Nc3cccc(Br)c3)[S][Cu-2]23[S]C(Nc2cccc(Br)c2)=[N+]3c2ccc(Cl)c([N+](=O)[O-])c2)ccc1Cl"
Reply text: 128

Inquiry: Answer with the recorded MIC of "O=[N+]([O-])c1cc([N+]2=C(Nc3ccc(F)c(Cl)c3)[S][Cu-2]23[S]C(Nc2ccc(F)c(Cl)c2)=[N+]3c2ccc(Cl)c([N+](=O)[O-])c2)ccc1Cl" only.
Reply text: 128

Inquiry: # return recorded MIC for input "O=[N+]([O-])c1cc([N+]2=C(Nc3ccc(Cl)c(Cl)c3)[S][Cu-2]23[S]C(Nc2ccc(Cl)c(Cl)c2)=[N+]3c2ccc(Cl)c([N+](=O)[O-])c2)ccc1Cl"
Reply text: 128

Inquiry: Respond only with MIC recorded for "O=[N+]([O-])c1cc([N+]2=C(Nc3ccccc3F)[S][Cu-2]23[S]C(Nc2ccccc2F)=[N+]3c2ccc(Cl)c([N+](=O)[O-])c2)ccc1Cl"
Reply text: 256

* * *

Reported MIC values are given for each entry in this list.
- Tested on: S. aureus ATCC 29213
- EXPERIMENTAL_PROTOCOL: MIC, twofold serial microdilution
- Type: cell-based, Staphylococcus aureus
- STATED_CONDITIONS: S. aureus ATCC 29213, 18 h, 35 °C
Write the value in µg/mL as a bare number.

In the examples that follow, each entry is paired with its recorded MIC.
{"COMPOUND": "O=[N+]([O-])c1cc([N+]2=C(Nc3ccccc3F)[S][Cu-2]23[S]C(Nc2ccccc2F)=[N+]3c2ccc(Cl)c([N+](=O)[O-])c2)ccc1Cl [Compound 7]", "VALUE_UNITS": "µg/mL", "MEASUREMENT": 32}
{"COMPOUND": "O=[N+]([O-])c1cc(NC2=[N+](c3ccc(Cl)c([N+](=O)[O-])c3)[Cu-2]3([S]2)[S]C(Nc2ccc(Cl)c([N+](=O)[O-])c2)=[N+]3c2ccc(Cl)c([N+](=O)[O-])c2)ccc1Cl [Compound 6]", "VALUE_UNITS": "µg/mL", "MEASUREMENT": 8}

Inquiry: Please list MIC recorded for the compound O=[N+]([O-])c1cc([N+]2=C(Nc3ccc(Cl)c(Cl)c3)[S][Cu-2]23[S]C(Nc2ccc(Cl)c(Cl)c2)=[N+]3c2ccc(Cl)c([N+](=O)[O-])c2)ccc1Cl [Compound 5]
Reply text: 32

Inquiry: Report measured MIC; entry is O=[N+]([O-])c1cc([N+]2=C(Nc3ccc(I)cc3)[S][Cu-2]23[S]C(Nc2ccc(I)cc2)=[N+]3c2ccc(Cl)c([N+](=O)[O-])c2)ccc1Cl [Compound 8]
Reply text: 4

Inquiry: Identify measured MIC associated with O=[N+]([O-])c1cc([N+]2=C(Nc3ccc(Br)cc3)[S][Cu-2]23[S]C(Nc2ccc(Br)cc2)=[N+]3c2ccc(Cl)c([N+](=O)[O-])c2)ccc1Cl [Compound 3]
Reply text: 16
